# System under test: AGO2 T357M (Homo sapiens, UniProt Q9UKV8 1-859, T357M;S387D;S824A;S828D;S831D;S834A)
# Sequence (Q9UKV8 whole entry T357M/S387D/S824A/S828D/S831D/S834A): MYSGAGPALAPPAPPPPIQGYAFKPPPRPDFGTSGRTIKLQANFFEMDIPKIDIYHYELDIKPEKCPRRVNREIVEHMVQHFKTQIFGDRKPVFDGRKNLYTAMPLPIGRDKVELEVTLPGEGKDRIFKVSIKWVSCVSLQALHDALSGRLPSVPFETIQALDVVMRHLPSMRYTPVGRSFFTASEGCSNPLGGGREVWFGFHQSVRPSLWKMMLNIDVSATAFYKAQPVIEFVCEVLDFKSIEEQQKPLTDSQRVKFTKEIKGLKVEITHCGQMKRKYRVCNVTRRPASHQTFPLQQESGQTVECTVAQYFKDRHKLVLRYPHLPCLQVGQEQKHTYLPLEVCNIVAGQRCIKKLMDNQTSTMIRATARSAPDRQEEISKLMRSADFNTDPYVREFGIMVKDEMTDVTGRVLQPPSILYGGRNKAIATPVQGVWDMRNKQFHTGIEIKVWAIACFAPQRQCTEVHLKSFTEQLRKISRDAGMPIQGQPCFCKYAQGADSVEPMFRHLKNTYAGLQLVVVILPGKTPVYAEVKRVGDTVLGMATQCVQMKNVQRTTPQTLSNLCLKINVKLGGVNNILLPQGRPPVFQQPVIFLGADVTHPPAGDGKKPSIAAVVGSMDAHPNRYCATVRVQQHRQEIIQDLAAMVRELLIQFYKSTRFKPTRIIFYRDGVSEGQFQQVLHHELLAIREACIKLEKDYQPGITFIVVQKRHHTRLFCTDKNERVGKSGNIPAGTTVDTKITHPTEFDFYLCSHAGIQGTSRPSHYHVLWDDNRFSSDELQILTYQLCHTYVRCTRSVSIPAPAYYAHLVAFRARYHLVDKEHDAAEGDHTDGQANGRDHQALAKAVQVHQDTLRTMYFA
# Test: RNA Bind-n-Seq (nitrocellulose filter binding and sequencing); miR-122 guide loaded in AGO2; 60 min incubation; 30 mM Tris pH 8.0, 100 mM potassium acetate, 2 mM magnesium acetate, 0.5 mM TCEP, 0.005% NP-40, 0.01 mg/ml yeast tRNA; 3 nM AGO2-miR-122, 100 nM RNA library; 60; high values mean tight binding
# Cond: protein: recombinant; tags: His6 (N-terminal, pFastBac HTA)
Readout name: binding signal

Completed entries (count: 3):
Binder	Readout name	Result
GCGCTCCG (ssRNA, constant regions annealed to DNA blockers; guide miR-122 5' phosphate) RNA 1: GAGUUCUACAGUCCGACGAUCCCAACGCGCUCCGCACCUGGAAUUCUCGGGUGCCAA RNA 2: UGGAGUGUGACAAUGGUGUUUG DNA 1: GATCGTCGGACTGTAGAACTC DNA 2: TTGGCACCCGAGAATTCCA	binding signal	0.905 fold enrichment over input
GTATTCTA (ssRNA, constant regions annealed to DNA blockers; guide miR-122 5' phosphate) RNA 1: GAGUUCUACAGUCCGACGAUCCCAACGUAUUCUACACCUGGAAUUCUCGGGUGCCAA RNA 2: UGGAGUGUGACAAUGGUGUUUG DNA 1: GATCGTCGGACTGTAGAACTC DNA 2: TTGGCACCCGAGAATTCCA	binding signal	0.606 fold enrichment over input
ACGCTTCG (ssRNA, constant regions annealed to DNA blockers; guide miR-122 5' phosphate) RNA 1: GAGUUCUACAGUCCGACGAUCCCAACACGCUUCGCACCUGGAAUUCUCGGGUGCCAA RNA 2: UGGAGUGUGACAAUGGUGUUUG DNA 1: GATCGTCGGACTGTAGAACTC DNA 2: TTGGCACCCGAGAATTCCA	binding signal	0.445 fold enrichment over input

--- query ---
Task: I have this binder here, GTATTCTG (ssRNA, constant regions annealed to DNA blockers; guide miR-122 5' phosphate) RNA 1: GAGUUCUACAGUCCGACGAUCCCAACGUAUUCUGCACCUGGAAUUCUCGGGUGCCAA RNA 2: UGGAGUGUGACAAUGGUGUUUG DNA 1: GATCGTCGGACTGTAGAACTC DNA 2: TTGGCACCCGAGAATTCCA , and I need its recorded binding signal.
Result: 0.506 fold enrichment over input
